Data origin, for the record: patent US6713506B2

The compounds below have reported IC50 for chymotrypsin-like activity of purified 20S proteasome (UniProt Q9P992).
Phrase the answer as number then unit, nothing more needed.

| compound | IC50 |
| --- | --- |
| O=C(O[C@@H]1Cc2c(O)cc(O)cc2O[C@@H]1c1cc(O)c(O)c(O)c1)c1cc(O)c(O)c(O)c1 [EGCG, (−)-epigallocatechin-3-gallate] | 86 nM |

Provide the documented IC50 with chymotrypsin-like activity of purified 20S proteasome (UniProt Q9P992) as the system for CC(C)[C@H](O)[C@@]12NC(=O)[C@H](C)[C@@H]1OC2=O [β-lactone, clastolactacystin β-lactone, reference compound] 600 nM
